The values you see were collected from paper PMC3024951.

Molecular target: T1, Extracellular IL-6R (interleukin-6 receptor) (UniProt P08887 20-365)
T1 construct: also called soluble extracellular IL-6R; source: bought: PeproTech
T1 sequence: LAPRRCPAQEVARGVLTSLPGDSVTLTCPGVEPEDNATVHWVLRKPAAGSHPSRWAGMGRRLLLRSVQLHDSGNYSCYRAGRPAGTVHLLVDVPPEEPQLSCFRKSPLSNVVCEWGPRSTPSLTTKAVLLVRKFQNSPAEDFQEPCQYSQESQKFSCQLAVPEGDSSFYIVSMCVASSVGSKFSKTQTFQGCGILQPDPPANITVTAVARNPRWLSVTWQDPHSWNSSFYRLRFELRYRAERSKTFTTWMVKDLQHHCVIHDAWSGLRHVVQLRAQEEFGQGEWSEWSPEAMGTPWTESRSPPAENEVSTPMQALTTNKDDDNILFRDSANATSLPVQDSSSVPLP
Test: ELISA; competitive inhibition: 45 nM biotinylated IL-6 and 1 nM-2 μM protein/peptide with IL-6R coated beads (350 nM) in PBS-BSA, 25°C, 1 h; detected with SA-HRP
Settings: both partners purified
// reported IC50 for each item listed

BINDER | IC50, nM
R10-15 (designed binder) LVCYQLLACRPGTLETCPDDFTCVATRHTLGHNLTQYCSHAYAIPACETPASCCQTDKCNG | 102
R10-13 (designed binder) LVCYQLLACRPGTLETCPDDFTCVATRHTLGHNLTQYCSHAHAIPTPRARTGCCQTDKCNG | 113
